Below, each entry is listed alongside its reported pIC50.
- TEST_TARGET: KRAS G12V (Homo sapiens, UniProt P01116+P62937, G12V)
- Sequence (P01116 1-169 isoform P01116-2 G12V limits assumed): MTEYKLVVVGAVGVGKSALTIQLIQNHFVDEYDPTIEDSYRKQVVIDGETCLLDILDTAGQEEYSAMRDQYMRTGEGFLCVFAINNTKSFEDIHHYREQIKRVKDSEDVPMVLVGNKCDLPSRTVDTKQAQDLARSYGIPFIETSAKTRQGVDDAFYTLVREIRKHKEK
- Sequence (P62937 whole entry): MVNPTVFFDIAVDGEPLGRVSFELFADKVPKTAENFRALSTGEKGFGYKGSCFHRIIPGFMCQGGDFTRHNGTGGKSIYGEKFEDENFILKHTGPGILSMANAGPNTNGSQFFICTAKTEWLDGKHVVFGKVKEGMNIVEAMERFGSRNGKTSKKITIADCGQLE
- EXPERIMENT: Ras-Raf disruption/FRET/MOA assay, KRAS G12V
- Type: biochemical
- PROTOCOL_CONDITIONS: disruption of BRAF RBD binding, with Cyclophilin A; read-out: KRAS G12V FRET IC50
pIC50: −log10 of the molar value.

MOLECULE	TEST_TARGET	MEASURED_QUANTITY	RESULT
CCn1c(-c2cccnc2[C@H](C)OC)c2c3cc(ccc31)-c1cc(O)cc(c1)C[C@H](NC(=O)[C@H](C(C)C)N1CC[C@@]3(CCN(C[C@H]4CN4)C3)C1=O)C(=O)N1CCC[C@H](N1)C(=O)OCC(C)(C)C2 [Compound 193]	KRAS G12V (Homo sapiens, UniProt P01116+P62937, G12V)	pIC50	5.00 to 6.00
CCn1c(-c2cnccc2COC)c2c3cc(ccc31)-c1cccc(c1)C[C@H](NC(=O)[C@H](C(C)C)N(C)C(=O)[C@H]1CC[C@H](N=C=Nc3ccc(OC)cc3)C1)C(=O)N1CCC[C@H](N1)C(=O)OCC(C)(C)C2	KRAS G12V (Homo sapiens, UniProt P01116+P62937, G12V)	pIC50	< 5.00
CCn1c(-c2cnccc2COC)c2c3cc(ccc31)-c1cccc(c1)C[C@H](NC(=O)[C@H](C(C)C)N(C)C(=O)CCCN=C=NCCCOC)C(=O)N1CCC[C@H](N1)C(=O)OCC(C)(C)C2	KRAS G12V (Homo sapiens, UniProt P01116+P62937, G12V)	pIC50	< 5.00
CCn1c(-c2cnccc2COC)c2c3cc(ccc31)-c1cc(O)cc(c1)C[C@H](NC(=O)[C@H](C(C)C)N(C)C(=O)CN(C)C(=O)C1CN1C(C)=O)C(=O)N1CCC[C@H](N1)C(=O)OCC(C)(C)C2 (some centres unmarked)	KRAS G12V (Homo sapiens, UniProt P01116+P62937, G12V)	pIC50	6.00 to 7.00
CCn1c(-c2cccnc2[C@H](C)OC)c2c3cc(ccc31)-c1csc(n1)C[C@H](NC(=O)[C@H](C(C)C)N(C)C(=O)N1CCC[C@H](N(C)C(=O)[C@H]3CN3)C1)C(=O)N1CCC[C@H](N1)C(=O)OCC(C)(C)C2 (atropisomer, axis not shown)	KRAS G12V (Homo sapiens, UniProt P01116+P62937, G12V)	pIC50	6.00 to 7.00
CCn1c(-c2cccnc2[C@H](C)OC)c2c3cc(ccc31)-c1cc(O)cc(c1)C[C@H](NC(=O)[C@H](C(C)C)N1CO[C@]3(CCN(C(=O)[C@H]4CN4)C3)C1=O)C(=O)N1CCC[C@H](N1)C(=O)OCC(C)(C)C2	KRAS G12V (Homo sapiens, UniProt P01116+P62937, G12V)	pIC50	7.00 to 8.00
CCn1c(-c2cccnc2[C@H](C)OC)c2c3cc(ccc31)-c1csc(n1)C[C@H](NC(=O)[C@H](C(C)C)N(C)C(=O)N1CCC[C@@H](N(C)C(=O)[C@H]3CN3)C1)C(=O)N1CCC[C@H](N1)C(=O)OCC(C)(C)C2 (atropisomer, axis not shown)	KRAS G12V (Homo sapiens, UniProt P01116+P62937, G12V)	pIC50	6.00 to 7.00
CCn1c(-c2cnccc2COC)c2c3cc(ccc31)-c1cc(O)cc(c1)C[C@H](NC(=O)[C@@H](CN(C)C(=O)[C@H]1CN1)C(C)C)C(=O)N1CCC[C@H](N1)C(=O)OCC(C)(C)C2	KRAS G12V (Homo sapiens, UniProt P01116+P62937, G12V)	pIC50	< 5.00
CCn1c(-c2cnccc2COC)c2c3cc(ccc31)-c1cc(O)cc(c1)C[C@H](NC(=O)[C@@H](CCNC(=O)NCCCl)C(C)C)C(=O)N1CCC[C@H](N1)C(=O)OCC(C)(C)C2	KRAS G12V (Homo sapiens, UniProt P01116+P62937, G12V)	pIC50	< 5.00
CCn1c(-c2cnccc2COC)c2c3cc(ccc31)-c1cc(O)cc(c1)C[C@H](NC(=O)[C@H](C(C)C)N(C)C(=O)CN(C)C(=O)[C@H]1CN1C(C)=O)C(=O)N1CCC[C@H](N1)C(=O)OCC(C)(C)C2	KRAS G12V (Homo sapiens, UniProt P01116+P62937, G12V)	pIC50	6.00 to 7.00

Attention now shifts to the item below.
Value sought: pIC50, system KRAS G12V (Homo sapiens, UniProt P01116+P62937, G12V), item CCn1c(-c2cnccc2COC)c2c3cc(ccc31)-c1cc(O)cc(c1)C[C@H](NC(=O)[C@@H](CN(C)C(=O)[C@@H]1CN1)C(C)C)C(=O)N1CCC[C@H](N1)C(=O)OCC(C)(C)C2 . Result: < 5.00

====

- Tested on: NCI-H358 (K-Ras G12C)
- EXPERIMENT: CellTiter-Glo cell viability assay, H358
- Format: cell-based
- PROTOCOL_CONDITIONS: Homo sapiens, NCI-H358, 120 h, read-out: H358 Cell Viability IC50, NCI-H358, K-Ras G12C, 5-day treatment
pIC50: −log10 of the molar value.
MEASURED_QUANTITY: pIC50

COMPOUND	TEST_TARGET	pIC50
CCn1c(-c2cccnc2[C@H](C)OC)c2c3cc(ccc31)-c1cc(O)cc(c1)C[C@H](NC(=O)[C@H](C(C)C)N(C)C(=O)CN(C)C(=O)[C@H]1N[C@H]1C(C)C)C(=O)N1CCC[C@H](N1)C(=O)OCC(C)(C)C2	NCI-H358 (K-Ras G12C)	7.00 to 8.00
CCn1c(-c2cc(N3CCN(C)CC3)cnc2[C@H](C)OC)c2c3cc(ccc31)-c1cc(O)cc(c1)C[C@H](NC(=O)[C@H](C1CCCC1)N(C)C(=O)CN(C)C(=O)[C@H]1CN1)C(=O)N1CCC[C@H](N1)C(=O)OCC(C)(C)C2	NCI-H358 (K-Ras G12C)	> 8.00

Observed pIC50, NCI-H358 (K-Ras G12C), CCn1c(-c2cccnc2[C@H](C)OC)c2c3cc(ccc31)-c1cc(O)cc(c1)C[C@H](NC(=O)[C@H](C(C)C)N(C)C(=O)CN(C)C(=O)[C@H]1CN1Cc1ccccc1F)C(=O)N1CCC[C@H](N1)C(=O)OCC(C)(C)C2 (stereo partly shown) : > 8.00

// returns pIC50 for CCn1c(-c2cnccc2COC)c2c3cc(ccc31)-c1cc(O)cc(c1)C[C@H](NC(=O)[C@H](C(C)C)N(C)C(=O)CN(C)C(=O)[C@@H]1N[C@H]1c1ccc(OC)cc1)C(=O)N1CCC[C@H](N1)C(=O)OCC(C)(C)C2 with NCI-H358 (K-Ras G12C); value = 5.00 to 6.00

====

Parameter: IC50. Scope: all listed entries.
- Test system: AsPC-1 (K-Ras G12D)
- EXPERIMENT: CellTiter-Glo cell viability assay, AsPC-1
- Assay type: cell-based
- PROTOCOL_CONDITIONS: Homo sapiens, ASPC1, 120 h, read-out: AsPC-1 Cell Viability IC50, AsPC-1, K-Ras G12D, 5-day treatment

COMPOUND	RESULT
CCn1c(-c2cccnc2[C@H](C)OC)c2c3cc(ccc31)-c1cc(O)cc(c1)C[C@H](NC(=O)[C@H](C(C)C)N(C)C(=O)CN(C)C(=O)[C@@H]1N[C@@H]1C(C)C)C(=O)N1CCC[C@H](N1)C(=O)OCC(C)(C)C2 [Compound 264]	100 to 1000 nM
CCn1c(-c2cnccc2COC)c2c3cc(ccc31)-c1cc(O)cc(c1)C[C@H](NC(=O)[C@H](C(C)C)N(C)C(=O)CN(C)C(=O)[C@H]1N[C@H]1c1ccccc1)C(=O)N1CCC[C@H](N1)C(=O)OCC(C)(C)C2 [Compound 116]	> 10000 nM
CCn1c(-c2cccnc2[C@H](C)OC)c2c3cc(ccc31)-c1cc(O)cc(c1)C[C@H](NC(=O)[C@H](C(C)C)N(C)C(=O)CN(C)C(=O)[C@H]1N[C@H]1C1CCC1)C(=O)N1CCC[C@H](N1)C(=O)OCC(C)(C)C2 [Compound 288]	100 to 1000 nM
CCn1c(-c2cccnc2[C@H](C)OC)c2c3cc(ccc31)-c1cc(O)cc(c1)C[C@H](NC(=O)[C@H](C(C)C)N(C)C(=O)[C@H]1CC[C@@H](C)N1C(=O)[C@@H]1CN1)C(=O)N1CCC[C@H](N1)C(=O)OCC(C)(C)C2 [Compound 153]	1000 to 10000 nM
CCn1c(-c2cccnc2[C@H](C)OC)c2c3cc(ccc31)-c1cc(O)cc(c1)C[C@H](NC(=O)[C@H](C(C)C)N(C)C(=O)CN(C)C(=O)[C@H]1CN1Cc1ccccc1CO)C(=O)N1CCC[C@H](N1)C(=O)OCC(C)(C)C2 (some centres unmarked) [Compound 156]	100 to 1000 nM

Sample CCn1c(-c2cccnc2[C@H](C)OC)c2c3cc(ccc31)-c1cc(O)cc(c1)C[C@H](NC(=O)[C@H](C(C)C)N(C)C(=O)CN(C)C(=O)[C@@H]1N[C@@H]1C1COC1)C(=O)N1CCC[C@H](N1)C(=O)OCC(C)(C)C2 [Compound 281] , system: AsPC-1 (K-Ras G12D). Its IC50 is 100 to 1000 nM

Entry CC[C@@H]1N[C@@H]1C(=O)N(C)CC(=O)N(C)[C@H](C(=O)N[C@H]1Cc2cc(O)cc(c2)-c2ccc3c(c2)c(c(-c2cccnc2[C@H](C)OC)n3CC)CC(C)(C)COC(=O)[C@@H]2CCCN(N2)C1=O)C(C)C [Compound 263] , tested on AsPC-1 (K-Ras G12D), has a reported IC50 of 100 to 1000 nM

Item CCn1c(-c2cccnc2[C@H](C)OC)c2c3cc(ccc31)-c1cc(O)cc(c1)C[C@H](NC(=O)[C@H](C(C)C)N(C)C(=O)CN(C)C(=O)[C@@H]1N[C@@H]1C1CC1)C(=O)N1CCC[C@H](N1)C(=O)OCC(C)(C)C2 [Example 133] was tested on AsPC-1 (K-Ras G12D); the reported IC50 is 10 to 100 nM
